The reported measurements were obtained from ChEMBL document CHEMBL1156078.

Target: Mitogen-activated protein kinase; ERK1/ERK2 (Homo sapiens) (UniProt P27361+P28482)
Sequence (P27361 whole entry, looked up): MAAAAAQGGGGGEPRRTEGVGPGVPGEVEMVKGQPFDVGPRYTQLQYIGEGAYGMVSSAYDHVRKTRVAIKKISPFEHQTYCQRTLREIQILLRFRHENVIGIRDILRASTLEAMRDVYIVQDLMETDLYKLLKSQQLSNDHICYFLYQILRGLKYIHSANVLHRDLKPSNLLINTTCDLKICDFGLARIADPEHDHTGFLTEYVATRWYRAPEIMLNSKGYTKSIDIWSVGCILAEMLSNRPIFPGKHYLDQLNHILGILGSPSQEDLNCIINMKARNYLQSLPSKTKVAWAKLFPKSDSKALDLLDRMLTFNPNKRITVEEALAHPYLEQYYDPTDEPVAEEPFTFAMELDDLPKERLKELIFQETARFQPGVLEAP
Sequence (P28482 whole entry, looked up): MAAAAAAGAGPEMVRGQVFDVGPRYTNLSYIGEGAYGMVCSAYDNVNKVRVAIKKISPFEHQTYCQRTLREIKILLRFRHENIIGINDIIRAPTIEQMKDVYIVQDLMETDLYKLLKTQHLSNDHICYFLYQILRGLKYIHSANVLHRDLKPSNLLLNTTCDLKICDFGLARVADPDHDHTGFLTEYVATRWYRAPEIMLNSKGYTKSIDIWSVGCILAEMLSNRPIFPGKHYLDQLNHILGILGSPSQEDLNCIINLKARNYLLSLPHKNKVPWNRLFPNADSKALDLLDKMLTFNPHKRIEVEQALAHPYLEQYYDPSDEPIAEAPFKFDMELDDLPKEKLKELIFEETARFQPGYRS
Test: Inhibition of ERK1/2 phosphorylation in PMA-stimulated human U937 cells at 50 uM after 3 hrs by Western blotting
Type: cell-based
Conditions: U-937
Activity calls are given as the source filed them. The rule behind the calls is not given here.
readoutKind: inhibition

For orientation, consider the following solved cases.
NCCN1C(=O)S/C(=C\c2cccc3ccccc23)C1=O = Active
NCCN1C(=O)S/C(=C\[C@H](O)[C@@H](O)c2ccccc2)C1=O = inactive
CN(C)CCN1C(=O)S/C(=C\C/C=C/c2ccccc2)C1=O = Active
NCCN1C(=O)S/C(=C\c2ccc3c(c2)OCCO3)C1=O = Active

IN: Quick one: inhibition for "CCOc1ccc(/C=C2\SC(=O)N(CCN)C2=O)cc1" ?
OUT: inactive
